Target: Amine oxidase [flavin-containing] A (Homo sapiens)
Sequence (P21397 whole entry): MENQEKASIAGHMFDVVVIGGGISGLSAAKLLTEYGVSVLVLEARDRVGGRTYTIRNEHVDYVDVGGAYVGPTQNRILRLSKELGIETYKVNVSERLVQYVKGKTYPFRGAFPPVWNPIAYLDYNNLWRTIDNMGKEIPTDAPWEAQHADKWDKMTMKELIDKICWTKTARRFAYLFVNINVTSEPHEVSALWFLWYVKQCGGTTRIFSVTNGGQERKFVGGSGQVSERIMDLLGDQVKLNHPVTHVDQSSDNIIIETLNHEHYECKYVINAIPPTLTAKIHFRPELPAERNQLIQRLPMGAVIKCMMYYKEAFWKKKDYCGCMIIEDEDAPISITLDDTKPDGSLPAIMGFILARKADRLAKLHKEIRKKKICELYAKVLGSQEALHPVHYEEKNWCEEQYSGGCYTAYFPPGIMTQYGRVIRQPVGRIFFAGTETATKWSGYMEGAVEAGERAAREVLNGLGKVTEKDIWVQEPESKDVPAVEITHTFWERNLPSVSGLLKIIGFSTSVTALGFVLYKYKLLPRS
PARAMETER MEASURED: Ki (nM)
Answers are plain numbers, in nM.

What value of measured Ki is listed for COCCn1ncc2cc(C(=O)Nc3ccc(Cl)c(Cl)c3)ccc21 ?
0.48

* * *

Give inhibition for every item shown.
target: Cholinesterase (Homo sapiens); test: Inhibition of BuChE in human serum using S-butyrylthiocholine iodide as substrate at 100 uM preincubated with enzyme for 10 mins followed by substrate addition measured for 15 mins by Ellman's method relative to control; format: cell-free
Answers are plain numbers, in %.

Here's what some known entries look like.
1. O=C(Nc1ccc(Cl)c(F)c1)c1ccc2[nH]ncc2c1 : 2.23
2. Clc1cc(/N=C/c2ccc3[nH]ncc3c2)cnc1Cl : 9.64
3. Fc1ccc(/N=C/c2ccc3[nH]ncc3c2)cc1Cl : 4.56
4. COCCn1ncc2cc(/C=N/c3ccc(Cl)c(Cl)c3)ccc21 : 2.27

Hello, I would appreciate it if you could give inhibition for each entry below.
1. O=C(Nc1ccc(F)c(Cl)c1)c1ccc2[nH]ncc2c1
2. Fc1cc(/N=C/c2ccc3[nH]ncc3c2)ccc1Cl
3. O=C(Nc1ccc(Cl)c(Cl)c1)c1ccc2[nH]ncc2c1
4. Clc1ccc(/N=C/c2ccc3[nH]ncc3c2)cc1Cl
5. Cn1ncc2cc(C(=O)Nc3ccc(Cl)c(Cl)c3)ccc21
6. Cn1ncc2cc(/C=N/c3ccc(Cl)c(Cl)c3)ccc21
7. COCCn1ncc2cc(C(=O)Nc3ccc(Cl)c(Cl)c3)ccc21
8. O=C(Nc1cnc(Cl)c(Cl)c1)c1ccc2[nH]ncc2c1

1: 7.21; 2: 6.97; 3: 11.3; 4: 9.01; 5: 11.1; 6: 8.57; 7: 9.58; 8: 9.23
